Measured values drawn from patent US10745377B2 for this set.

Target: CYP1A2 (Homo sapiens, UniProt P05177)
Construct: 0.1 mg/mL protein human liver microsomes (BD Gentest); tissue BD Gentest; host or cells: human liver microsomes
Sequence (P05177 whole entry): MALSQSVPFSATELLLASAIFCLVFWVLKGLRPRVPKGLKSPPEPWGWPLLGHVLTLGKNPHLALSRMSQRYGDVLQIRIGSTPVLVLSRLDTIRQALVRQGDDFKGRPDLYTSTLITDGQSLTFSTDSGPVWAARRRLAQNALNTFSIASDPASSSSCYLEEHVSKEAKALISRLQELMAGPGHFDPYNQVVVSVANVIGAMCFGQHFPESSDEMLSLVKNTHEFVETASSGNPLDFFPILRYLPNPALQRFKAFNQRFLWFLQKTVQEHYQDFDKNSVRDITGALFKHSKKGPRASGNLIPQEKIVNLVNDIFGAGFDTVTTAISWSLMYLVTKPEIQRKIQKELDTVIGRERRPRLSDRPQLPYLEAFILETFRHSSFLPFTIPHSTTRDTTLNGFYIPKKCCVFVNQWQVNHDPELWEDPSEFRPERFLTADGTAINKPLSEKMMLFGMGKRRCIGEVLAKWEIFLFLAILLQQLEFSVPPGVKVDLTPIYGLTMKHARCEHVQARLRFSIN
Experiment: Cocktail assay for CYPs in human liver microsomes: CYP1A2 (phenacetin O-deethylation)
Format: biochemical
Details: human liver microsomes 0.1 mg/mL, 10 μM phenacetin, 10 min at 37° C., 6 concentrations up to 10 μM; read-out: IC50 (nM) CYP1A2
quantity-kind: IC50

compound: CCOC(=O)CN1CCN(Cc2cncn2C(C)c2ccccc2-c2ccc(F)cc2)CC1 (centres unmarked)
target-under-test: CYP1A2 (Homo sapiens, UniProt P05177)
value-measured: > 10000 nM

compound: CC(C)c1noc(C2(C)CCN(Cc3cncn3[C@H](C)c3ccc(F)cc3)CC2)n1
target-under-test: CYP1A2 (Homo sapiens, UniProt P05177)
value-measured: 5070 nM

compound: C[C@H](c1ccc(C#N)cc1)n1cncc1CN1CCN(c2nc3cccc(F)c3o2)CC1
target-under-test: CYP1A2 (Homo sapiens, UniProt P05177)
value-measured: > 10000 nM

compound: C[C@H](c1ccc(F)cc1)n1cncc1CN1CCN(Cc2ccccc2)C(=O)C1
target-under-test: CYP1A2 (Homo sapiens, UniProt P05177)
value-measured: > 10000 nM

compound: C[C@H](c1ccc(F)cc1)n1cncc1CN1CCN(C(=O)C2CCOCC2)C(c2ccccc2)C1 (single isomer, unassigned) [Compound 52b]
target-under-test: CYP1A2 (Homo sapiens, UniProt P05177)
value-measured: > 10000 nM

compound: C[C@H](c1ccc(C#N)cc1)n1cncc1CN1CCC(c2nc3ccccc3s2)CC1
target-under-test: CYP1A2 (Homo sapiens, UniProt P05177)
value-measured: > 10000 nM

compound: COc1ccc(-c2nc(CN3CCN(Cc4cncn4[C@H](C)c4ccc(F)cc4)CC3=O)no2)cc1
target-under-test: CYP1A2 (Homo sapiens, UniProt P05177)
value-measured: 3590 nM

compound: CC1CN(Cc2cncn2C(C)C2CCOCC2)CC(C)N1C(=O)C1(C)CC1 (centres unmarked)
target-under-test: CYP1A2 (Homo sapiens, UniProt P05177)
value-measured: > 10000 nM

----------
Target: CYP2C19 (Homo sapiens, UniProt P33261)
Construct: 0.1 mg/mL protein human liver microsomes (BD Gentest); tissue BD Gentest; host or cells: human liver microsomes
Sequence (P33261 whole entry): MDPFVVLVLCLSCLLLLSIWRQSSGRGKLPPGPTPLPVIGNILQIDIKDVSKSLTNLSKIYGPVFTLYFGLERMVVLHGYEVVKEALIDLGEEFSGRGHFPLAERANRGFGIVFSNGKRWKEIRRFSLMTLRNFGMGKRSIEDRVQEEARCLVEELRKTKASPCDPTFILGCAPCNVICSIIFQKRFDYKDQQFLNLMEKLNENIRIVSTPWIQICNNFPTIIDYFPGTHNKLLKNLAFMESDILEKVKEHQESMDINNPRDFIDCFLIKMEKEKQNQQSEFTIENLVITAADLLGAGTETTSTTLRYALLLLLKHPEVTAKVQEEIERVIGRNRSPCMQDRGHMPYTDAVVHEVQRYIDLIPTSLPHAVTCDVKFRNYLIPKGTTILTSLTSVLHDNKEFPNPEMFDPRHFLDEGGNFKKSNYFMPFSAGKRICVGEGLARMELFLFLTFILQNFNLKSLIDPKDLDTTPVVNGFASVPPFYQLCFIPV
Assay: Cocktail assay for CYPs in human liver microsomes: CYP2C19 (mephenytoin 4′-hydroxylation)
Format: biochemical
Settings: human liver microsomes 0.1 mg/mL, 30 μM mephenytoin, 10 min at 37° C., 6 concentrations up to 10 μM; read-out: IC50 (nM) CYP2C19
Exam item: assign yes (1) to entries whose IC50 is below 5000 nM and no (0) to entries at or above 5000 nM. Note that a value of exactly 5000 nM receives no (0).

molecule: C[C@H](c1ccc(F)cc1)n1cncc1CN1CCN(Cc2cn3ccccc3n2)C(=O)C1 [Compound 63]
category-label: no (0)

molecule: C[C@H](c1ccc(F)cc1)n1cncc1CN1CCN(C(=O)c2ccccc2)C(C(C)(C)C)C1 (some centres unmarked) [Compound 55]
category-label: yes (1)

molecule: CC1CN(Cc2cncn2[C@H](C)c2ccc(F)cc2)CC(C)N1C(=O)C1(C)CC1 (some centres unmarked) [Compound 54]
category-label: yes (1)

molecule: CC(C)C(C)n1cncc1CN1CCN(c2nc3ccccc3o2)CC1 (centres unmarked) [Compound 27]
category-label: no (0)

molecule: COc1ccc2nc(N3CCN(Cc4cncn4[C@H](C)c4ccc(C#N)cc4)CC3)sc2c1 [Compound 38]
category-label: yes (1)

molecule: C[C@H](c1ccc(F)cc1)n1cncc1CN1CCN(C(=O)C2CCOCC2)C(c2ccccc2)C1 (single isomer, unassigned) [Compound 52a]
category-label: no (0)

molecule: C[C@H](c1ccc(F)cc1)n1cncc1CN1CCN(C(=O)c2ccccn2)C(c2ccccc2)C1 (some centres unmarked) [Compound 53]
category-label: no (0)
